B1: tRNA (parent)
chain: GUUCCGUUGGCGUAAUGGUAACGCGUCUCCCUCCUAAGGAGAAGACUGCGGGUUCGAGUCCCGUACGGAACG

Variants of: B1
Assay Text: yeast fitness relative to wild type (ratio to wild type); higher = fitter; tRNA-Arg(CCU), competitive growth, 37 C, YPD
Variants at the floor of the assay were thinned out.
Observed Property: yeast fitness

>  <Variant Spec>
G18A U47A

>  <Observed Property>
yeast fitness

>  <Bound Operator>
=

>  <Measured Result>
0.824

$$$$
>  <Variant Spec>
G17C G51C C66U

>  <Observed Property>
yeast fitness

>  <Bound Operator>
≤

>  <Measured Result>
0.5

$$$$
>  <Variant Spec>
U3C C24A A43G G52A G58A

>  <Observed Property>
yeast fitness

>  <Bound Operator>
≤

>  <Measured Result>
0.5

$$$$
>  <Variant Spec>
A15U C27U A65U

>  <Observed Property>
yeast fitness

>  <Bound Operator>
=

>  <Measured Result>
0.725

$$$$
>  <Variant Spec>
C5U A20G U35C A37G

>  <Observed Property>
yeast fitness

>  <Bound Operator>
≤

>  <Measured Result>
0.5

$$$$
>  <Variant Spec>
C5U C11U C49U

>  <Observed Property>
yeast fitness

>  <Bound Operator>
=

>  <Measured Result>
0.721

$$$$
>  <Variant Spec>
G18C G23A C61U

>  <Observed Property>
yeast fitness

>  <Bound Operator>
≤

>  <Measured Result>
0.5

$$$$
>  <Variant Spec>
C24U G50A A70C

>  <Observed Property>
yeast fitness

>  <Bound Operator>
=

>  <Measured Result>
0.658

$$$$
>  <Variant Spec>
A15C C46U A57G C66A

>  <Observed Property>
yeast fitness

>  <Bound Operator>
≤

>  <Measured Result>
0.5

$$$$
>  <Variant Spec>
U8G U35A

>  <Observed Property>
yeast fitness

>  <Bound Operator>
≤

>  <Measured Result>
0.5

$$$$
>  <Variant Spec>
A14U A21G G39C A45G G63C

>  <Observed Property>
yeast fitness

>  <Bound Operator>
≤

>  <Measured Result>
0.5

$$$$
>  <Variant Spec>
G6C U7G G17C C49U G58C C61A A65U

>  <Observed Property>
yeast fitness

>  <Bound Operator>
≤

>  <Measured Result>
0.5

$$$$
>  <Variant Spec>
G10C A20G A43G C46U

>  <Observed Property>
yeast fitness

>  <Bound Operator>
≤

>  <Measured Result>
0.5

$$$$
>  <Variant Spec>
C5U U8C U26A

>  <Observed Property>
yeast fitness

>  <Bound Operator>
=

>  <Measured Result>
0.727

$$$$
>  <Variant Spec>
A43U G48C C60A U64A

>  <Observed Property>
yeast fitness

>  <Bound Operator>
≤

>  <Measured Result>
0.5

$$$$
>  <Variant Spec>
A15G G50A

>  <Observed Property>
yeast fitness

>  <Bound Operator>
=

>  <Measured Result>
0.929

$$$$
>  <Variant Spec>
A14G A57C C62U

>  <Observed Property>
yeast fitness

>  <Bound Operator>
≤

>  <Measured Result>
0.5

$$$$
>  <Variant Spec>
G9C A14C U16C C27U C29A C33G C66A

>  <Observed Property>
yeast fitness

>  <Bound Operator>
=

>  <Measured Result>
0.577

$$$$
>  <Variant Spec>
C34U A40C C62U

>  <Observed Property>
yeast fitness

>  <Bound Operator>
=

>  <Measured Result>
0.507

$$$$
>  <Variant Spec>
G12C A20U

>  <Observed Property>
yeast fitness

>  <Bound Operator>
=

>  <Measured Result>
0.75

$$$$
>  <Variant Spec>
G6A C11A A20G C62A

>  <Observed Property>
yeast fitness

>  <Bound Operator>
≤

>  <Measured Result>
0.5

$$$$
>  <Variant Spec>
A14G C22A C29U G56C G58C C66U

>  <Observed Property>
yeast fitness

>  <Bound Operator>
≤

>  <Measured Result>
0.5

$$$$
>  <Variant Spec>
C4U G9A C22G A42U G68C

>  <Observed Property>
yeast fitness

>  <Bound Operator>
≤

>  <Measured Result>
0.5

$$$$
>  <Variant Spec>
C11U G18C A43C G52A

>  <Observed Property>
yeast fitness

>  <Bound Operator>
≤

>  <Measured Result>
0.5

$$$$
>  <Variant Spec>
U3A G9C C31G C61U

>  <Observed Property>
yeast fitness

>  <Bound Operator>
=

>  <Measured Result>
0.581

$$$$
>  <Variant Spec>
C30G A57U C60G A65U

>  <Observed Property>
yeast fitness

>  <Bound Operator>
=

>  <Measured Result>
0.531

$$$$
>  <Variant Spec>
C30A A36U A42G C60U A69C

>  <Observed Property>
yeast fitness

>  <Bound Operator>
≤

>  <Measured Result>
0.5

$$$$
>  <Variant Spec>
U3G U16C C29G

>  <Observed Property>
yeast fitness

>  <Bound Operator>
≤

>  <Measured Result>
0.5

$$$$
>  <Variant Spec>
A14U A42G A43G C66G

>  <Observed Property>
yeast fitness

>  <Bound Operator>
≤

>  <Measured Result>
0.5

$$$$
>  <Variant Spec>
C4U C24G A36C A70C

>  <Observed Property>
yeast fitness

>  <Bound Operator>
≤

>  <Measured Result>
0.5

$$$$
>  <Variant Spec>
C46U G50C C55A G63A C66U

>  <Observed Property>
yeast fitness

>  <Bound Operator>
≤

>  <Measured Result>
0.5

$$$$
>  <Variant Spec>
C24A C33G

>  <Observed Property>
yeast fitness

>  <Bound Operator>
=

>  <Measured Result>
0.705

$$$$
>  <Variant Spec>
G17C C24U

>  <Observed Property>
yeast fitness

>  <Bound Operator>
=

>  <Measured Result>
0.607

$$$$
>  <Variant Spec>
A20G C60G C66G A69G

>  <Observed Property>
yeast fitness

>  <Bound Operator>
=

>  <Measured Result>
0.554

$$$$
>  <Variant Spec>
G10C C34U

>  <Observed Property>
yeast fitness

>  <Bound Operator>
=

>  <Measured Result>
0.565

$$$$
>  <Variant Spec>
U13C C22U G38C G51A A57C

>  <Observed Property>
yeast fitness

>  <Bound Operator>
≤

>  <Measured Result>
0.5

$$$$
>  <Variant Spec>
G6A C11G A37C C60A A70G

>  <Observed Property>
yeast fitness

>  <Bound Operator>
≤

>  <Measured Result>
0.5

$$$$
>  <Variant Spec>
A42G

>  <Observed Property>
yeast fitness

>  <Bound Operator>
=

>  <Measured Result>
0.934

$$$$
>  <Variant Spec>
U3A C11U C55G A65C

>  <Observed Property>
yeast fitness

>  <Bound Operator>
≤

>  <Measured Result>
0.5

$$$$
>  <Variant Spec>
U13C C22A

>  <Observed Property>
yeast fitness

>  <Bound Operator>
=

>  <Measured Result>
0.791

$$$$
>  <Variant Spec>
A20U U64G

>  <Observed Property>
yeast fitness

>  <Bound Operator>
=

>  <Measured Result>
0.725

$$$$
>  <Variant Spec>
C5A A45C

>  <Observed Property>
yeast fitness

>  <Bound Operator>
=

>  <Measured Result>
0.81

$$$$
>  <Variant Spec>
C4G U13C C49U C60G A65U

>  <Observed Property>
yeast fitness

>  <Bound Operator>
≤

>  <Measured Result>
0.5

$$$$
>  <Variant Spec>
A20U G39C

>  <Observed Property>
yeast fitness

>  <Bound Operator>
=

>  <Measured Result>
0.81

$$$$
